Biological target: Protoporphyrinogen oxidase (Bacillus subtilis (strain 168), UniProt P32397)
Sequence (P32397 whole entry): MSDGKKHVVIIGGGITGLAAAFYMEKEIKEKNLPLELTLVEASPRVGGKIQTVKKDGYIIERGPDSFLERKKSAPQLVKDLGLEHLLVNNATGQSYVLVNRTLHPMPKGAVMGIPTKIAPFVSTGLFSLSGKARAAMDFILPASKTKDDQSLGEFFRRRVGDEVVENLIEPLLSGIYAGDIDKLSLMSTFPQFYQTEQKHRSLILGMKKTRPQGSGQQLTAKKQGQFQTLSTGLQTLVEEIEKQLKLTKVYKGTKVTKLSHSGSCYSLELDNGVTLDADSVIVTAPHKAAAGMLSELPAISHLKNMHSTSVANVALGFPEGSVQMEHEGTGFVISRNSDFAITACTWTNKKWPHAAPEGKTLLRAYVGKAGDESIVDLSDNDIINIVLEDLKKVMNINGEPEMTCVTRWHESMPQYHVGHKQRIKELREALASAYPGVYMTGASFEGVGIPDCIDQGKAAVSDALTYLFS
Experiment: Inhibition of Bacillus subtilis Protoporphyrinogen oxidase by capillary electrophoresis
ASSAY_METRIC: Ki (nM)

INSERT INTO results (compound, units_label, assay_value) VALUES
  ('C#CCN1C(=O)COc2cc(F)c(N3C(=O)c4ccc(C)cc4C3=O)cc21', 'nM', 2820),
  ('CCC(C(=O)OC)N1C(=O)COc2cc(F)c(N3C(=O)C4=C(CCCC4)C3=O)cc21 (configuration not stated)', 'nM', 8.13),
  ('COC(=O)C(C)N1C(=O)C(C)Oc2cc(F)c(N3C(=O)C4=C(CCCC4)C3=O)cc21 (configuration not stated)', 'nM', 49),
  ('COC(=O)CN1C(=O)C(C)Oc2cc(F)c(N3C(=O)C4=C(CCCC4)C3=O)cc21 (configuration not stated)', 'nM', 39.8),
  ('CCOC(=O)C(c1ccccc1)N1C(=O)C(C)Oc2cc(F)c(N3C(=O)C4=C(CCCC4)C3=O)cc21 (configuration not stated)', 'nM', 91.2);

I. CCOC(=O)CN1C(=O)C(C)Oc2cc(F)c(N3C(=O)C4=C(CCCC4)C3=O)cc21 (configuration not stated)
II. O=C(NC(=O)c1ccccc1)Nc1cc(N2C(=O)C3=C(CCCC3)C2=O)ccc1Cl
Query: For the pair I and II , which member has the lower Ki number? Please indicate the selected item by its label.
Result: I
(I: 60.3 nM, II: 6170 nM)

----------
Target: Protoporphyrinogen oxidase (Bacillus subtilis (strain 168))
Sequence (P32397 whole entry): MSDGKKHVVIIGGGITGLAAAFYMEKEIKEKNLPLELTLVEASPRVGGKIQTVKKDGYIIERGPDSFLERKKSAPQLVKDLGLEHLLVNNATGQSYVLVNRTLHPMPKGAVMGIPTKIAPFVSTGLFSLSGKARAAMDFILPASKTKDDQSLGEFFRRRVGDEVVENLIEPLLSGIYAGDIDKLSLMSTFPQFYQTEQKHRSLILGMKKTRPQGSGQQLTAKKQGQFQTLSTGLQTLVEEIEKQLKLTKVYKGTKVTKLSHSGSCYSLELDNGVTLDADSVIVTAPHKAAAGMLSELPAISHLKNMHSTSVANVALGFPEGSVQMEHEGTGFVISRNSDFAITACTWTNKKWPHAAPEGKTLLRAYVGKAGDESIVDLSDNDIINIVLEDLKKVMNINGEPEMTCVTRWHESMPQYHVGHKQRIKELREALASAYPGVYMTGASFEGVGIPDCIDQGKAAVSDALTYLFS
Test: Inhibition of Bacillus subtilis Protoporphyrinogen oxidase by capillary electrophoresis
pKi: −log10 of the molar value.
ASSAY_METRIC: pKi

Some solved entries appear below for comparison.
INSERT INTO results (molecule, assay_value) VALUES
  ('CCOC(=O)C(C)N1C(=O)COc2cc(F)c(N3C(=O)C4=C(CCCC4)C3=O)cc21 (centres undefined)', 6.92),
  ('C#CCN1C(=O)C(C)Oc2cc(F)c(N3C(=O)c4ccc(C)cc4C3=O)cc21 (centres undefined)', 5.32),
  ('CCCN(CCC)C(=O)Nc1cc(N2C(=O)C3=C(CCCC3)C2=O)ccc1Cl', 6.54);

A. CC(C)N(C(=O)Nc1cc(N2C(=O)C3=C(CCCC3)C2=O)c(F)cc1Cl)C(C)C
B. CC(C)(CCl)C(=O)Nc1cc(N2C(=O)C3=C(CCCC3)C2=O)c(F)cc1Cl
C. O=C(Nc1ccc(Cl)cc1)Nc1cc(N2C(=O)C3=C(CCCC3)C2=O)c(F)cc1Cl
Query: Exam item: list the entries in increasing order of pKi. Hello, could you send the labels back in the order asked? Thank you.
Result: B, A, C
(B: 6.06, A: 6.64, C: 7.55)
